Recorded values, source PubChem BioAssay (NCI).

Kindly supply the reported growth values for the records listed here.
system: TK-10 renal; test: NCI-60 one-dose screen, 48 h (100 = growth as untreated, 0 = no growth, -100 = all killed); conditions: 10 µM unless noted
About 83,000 compounds went through this panel and 20% of them were active in at least one assay; those are over-represented in the sample as a whole. Calls of active or inactive are those of the source. Rule for the calls: active = growth percent below 10; inactive = the rest.

Examples with their reported growth follow.
- compound: "COc1cc(N2C(=O)[C@H](Cl)C2c2ccc(SC)cc2)cc(OC)c1OC (some centres undefined)"
  study.target: "TK-10 renal"
  growth: "49.1% (inactive)"
- compound: "O=C(/C=C/c1ccccc1)c1ccc(-n2cc(CN3CCN(c4cc5c(cc4F)c(=O)c(C(=O)O)cn5C4CC4)CC3)nn2)cc1"
  study.target: "TK-10 renal"
  growth: "83.3% (inactive)"
- compound: "O=C(c1ccc(Br)cc1)C(Br)C(c1ccc(Cl)cc1)C(c1ccccc1)[N+](=O)[O-] (centres undefined)"
  study.target: "TK-10 renal"
  growth: "103% (inactive)"

List the reported growth of each compound below.
1. COC12C=C/C(=C(/C(=O)OCc3cncnc3)C(=O)CCCCCCCCC3(OC)C=C/C(=C(/C(=O)OCc4cncnc4)C(=O)CCCCCCCC1)O3)O2
2. Fc1ccc2[nH]cc(-c3nc(-c4c[nH]c5c(Cl)nccc45)cs3)c2c1
3. CCOC(=O)NCCCC(=O)NCCc1ccccc1
4. O=C(Nc1ncc(Cc2ccccc2)s1)c1sc2ccccc2c1Cl

# output
1. -23.6% (active)
2. 33.8% (inactive)
3. 104% (inactive)
4. 38.8% (inactive)

List the reported growth of each compound below.
1. CN(C)CCCn1c2c(c3ccncc3c1=O)C(=O)c1ccccc1-2
2. CN1C(=O)N2CN3CCCN(C3)CN3C(=S)NC1C23 (centres undefined)

# output
1. 12.8% (inactive)
2. 108% (inactive)

====

system: MALME-3M melanoma; test: NCI-60 one-dose screen, 48 h (100 = growth as untreated, 0 = no growth, -100 = all killed); settings: 10 µM unless noted
This is part of a sample that, as a whole, favours compounds with a hit. Of some 83,000 tested, about 20% had one in any assay.
observed.property: growth (%)
Numbers only, in %.

List the reported growth of each compound below.
1. C#CCOc1ccc2nc(CCl)c(Cl)c(Nc3cccc(C(F)(F)F)c3)c2c1
2. O=C1NC(=O)C(c2coc3cc(Br)ccc23)=C1c1c[nH]c2ccccc12
3. N#Cc1c(-c2ccc(Br)cc2)nc2c(N=Nc3ccc(S(N)(=O)=O)cc3)c(N)nn2c1N
4. COC(=O)/C=C1/SC(=NCc2ccccc2)N(CCc2c[nH]c3ccccc23)C1=O
5. N#Cc1ccc(/C=C/c2cn(-c3ccccc3)nc2-c2cccc([N+](=O)[O-])c2)cc1

# output
1: 59.5; 2: 66.2; 3: 57.7; 4: 108; 5: 50.3

====

Tested on: K-562 leukemia
Assay: NCI-60 one-dose screen, 48 h
Conditions: 10 µM unless noted
Method: Cells are grown in 96 well plates and exposed to the test compound for 48 hours. Compounds are tested at a single concentration, which is 10^-5 M for most compounds. The reported endpoint is percent growth (GI% or GIPRCNT), where numbers from 0 - 100% represent growth inhibition, and numbers from -100% - 0 represent cell death. For example, a value of 40 represents 60% growth inhibition. A value of 0 means no net growth occurred over the course of the experiment. […]
The panel holds about 83,000 compounds, 20% with a hit somewhere; the sample as a whole holds those more often. Calls of active or inactive are those of the source. The calls were made as follows: active = growth percent below 10; inactive = the rest.
Classes to choose from: yes (1) = active, no (0) = inactive

// known answers, use as guide
- compound: "Cc1ccc(-c2csc(NC(=O)CSc3nc(N)cc(N)n3)n2)cc1"
  label: "no (0)"
- compound: "Cc1cc(Cl)nc(N2CCN(CCNc3ccnc4cc(Cl)ccc34)CC2)n1"
  label: "no (0)"
- compound: "O=C1NC(=O)C(c2coc3cc(Br)ccc23)=C1c1c[nH]c2ccccc12"
  label: "no (0)"
- compound: "O=C(NC1CCC(Br)CC1)C1CCCC(S(=O)(=O)NC2CCCCC2)C1 (stereo not drawn)"
  label: "yes (1)"
- compound: "COc1ccc2[nH]cc(-c3nonc3-c3c[nH]c4ccc(Br)cc34)c2c1"
  label: "yes (1)"
- compound: "O=C(Nc1ccc(Oc2cccc(Cl)c2)c(Cl)c1)c1cccnn1"
  label: "no (0)"

# input In this assay, the call recorded for [N-]=[N+]=NCC1OC(n2cnc3c(NC(=O)Nc4ccccc4)ncnc32)C2OC(=O)CC12 (stereo not drawn) was what?
# output no (0)

# input In this assay, the call recorded for "CCN(CC)C(=O)CC1=C(C)/C(=C/c2[nH]c(-c3ccc[nH]3)cc2OC)N=C1C" was what?
# output yes (1)

# input In this assay, the call recorded for "O=C(/C=C/c1cn(-c2ccccc2)nc1-c1ccccc1)CCC(=O)NO" was what?
# output no (0)

# input In this assay, the call recorded for "CC(=O)O[C@H]1CC[C@]2(C)[C@H]3CC=C4[C@@H]5CC(C)(C)CC[C@]5(C(=O)N5CCN(CCC#N)CC5)CC[C@@]4(C)[C@]3(C)CC[C@H]2C1(C)C" was what?
# output no (0)

# input In this assay, the call recorded for "CCCCCCCCCCCCCCCCCCOc1ccccc1CC(=O)NCC[N+](C)(C)C" was what?
# output no (0)

# input In this assay, the call recorded for "Ic1ccc(Nc2nc3nonc3nc2Nc2ccc(I)cc2)cc1" was what?
# output yes (1)

# input In this assay, the call recorded for "O=C1/C(=C/c2ccc(Cl)cc2)CN(C(=O)C(Cl)Cl)C/C1=C\c1ccc(Cl)cc1" was what?
# output yes (1)

# input In this assay, the call recorded for "O=[N+]([O-])c1c(O)c(Cl)cc(Cl)c1Cl" was what?
# output no (0)

# input In this assay, the call recorded for "c1cc(OCCN2CCCCC2)ccc1CNc1ccc2nc(CCC3CCCCC3)[nH]c2c1" was what?
# output yes (1)

# input In this assay, the call recorded for Cc1cc(C)c2c(c1)N(C)c1ncnc(-n3c(C)nc4cc(C)ccc43)c1CC2C (stereo not drawn) was what?
# output no (0)

# input In this assay, the call recorded for "CN(C)Cc1ccc(NC(=O)c2cncc(C#Cc3cnc(N)c4ncccc34)c2)cc1C(F)(F)F" was what?
# output yes (1)

# input In this assay, the call recorded for "CS(=O)(=O)Nc1cc(-c2ccc3ncnc(Nc4ccc(F)c(Cl)c4)c3c2)ccc1Cl" was what?
# output no (0)

# input In this assay, the call recorded for "C[C@H]1[C@H](C)CC[C@]2(C(=O)NCCNCCN)CC[C@]3(C)C(=CC[C@@H]4[C@@]5(C)CCC(=O)C(C)(C)[C@@H]5CC[C@]43C)[C@H]12" was what?
# output yes (1)
